B1: F1*; the commonest letter at each place (parent)
chain: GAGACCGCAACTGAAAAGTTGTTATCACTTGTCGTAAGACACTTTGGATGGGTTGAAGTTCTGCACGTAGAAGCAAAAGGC

variants of: B1; test: fraction ligated after 30 min (ligated reads / total reads); higher = more ligase activity; details: with F1*sub RNA substrate (template-directed ligation), 42 °C
measurementLabel: fraction ligated
Number only, no unit.

Solved entries (count: 10):
variantDescription: G38C A41T
reported: 0.785

variantDescription: G38T T43G
reported: 0.773

variantDescription: T30A C40G
reported: 0.803

variantDescription: C28G A41G
reported: 0.744

variantDescription: C42T A56T
reported: 0.811

variantDescription: T43G T49G
reported: 0.743

variantDescription: G34C G55C
reported: 0.768

variantDescription: A24T G50A
reported: 0.265

variantDescription: C33T C42T
reported: 0.86

variantDescription: T30A A48T
reported: 0.671

Lookup: Name the reported fraction ligated value associated with the variant T25C C28G
Found: 0.78

Lookup: Let us now turn to G38T G46T
Found: 0.782

Lookup: Let us now turn to C42G G55T
Found: 0.809

Lookup: Let us now turn to C40A A57G
Found: 0.843

Lookup: Let us now turn to T23A T49G
Found: 0.827

Lookup: Let us now turn to G31T G50T
Found: 0.103
